- assayProtocol: Metabolic stability in mouse liver microsomes
- Type: in vitro ADME
Collected Metabolic Stability Study M = mouse values appear next to each entry.
valueKind: Metabolic Stability Study M = mouse (µL/min/mg)

[[record]]
compound = "C[C@@H](NC(=O)Nc1ccc(S(=O)(=O)Cc2ccc3c(c2)C(F)CNC3)cc1)c1cccc(Cl)c1Cl (stereo partly shown)"
readingunit = "µL/min/mg"
comparativesign = "="
experimentalresult = 135.3

[[record]]
compound = "Cc1oc(=O)oc1CN1CCc2cc(NS(=O)(=O)c3ccc(NC(=O)N[C@@H](C)c4cccc(Cl)c4Cl)cc3)ccc2C1"
readingunit = "µL/min/mg"
comparativesign = "="
experimentalresult = 196.4

[[record]]
compound = "CC(NC(=O)Nc1ccc(S(=O)(=O)Cc2ccc3c(c2)CN(C2COC2)C3)cc1)c1ccccc1 (stereo not shown)"
readingunit = "µL/min/mg"
comparativesign = ">"
experimentalresult = 500

[[record]]
compound = "COC(=O)c1cc(S(=O)(=O)Cc2ccc3c(c2)CNC3)ccc1NC(=O)NC(C)c1ccccc1 (stereo not shown)"
readingunit = "µL/min/mg"
comparativesign = "="
experimentalresult = 49.3


---

- subjectOfTest: GHSR-1a (HEK293/GHSR1a cell line) (Homo sapiens)
- Construct: expressed in transfected cells; host or cells: HEK293/GHSR1a cell line
- Sequence (Q92847 whole entry): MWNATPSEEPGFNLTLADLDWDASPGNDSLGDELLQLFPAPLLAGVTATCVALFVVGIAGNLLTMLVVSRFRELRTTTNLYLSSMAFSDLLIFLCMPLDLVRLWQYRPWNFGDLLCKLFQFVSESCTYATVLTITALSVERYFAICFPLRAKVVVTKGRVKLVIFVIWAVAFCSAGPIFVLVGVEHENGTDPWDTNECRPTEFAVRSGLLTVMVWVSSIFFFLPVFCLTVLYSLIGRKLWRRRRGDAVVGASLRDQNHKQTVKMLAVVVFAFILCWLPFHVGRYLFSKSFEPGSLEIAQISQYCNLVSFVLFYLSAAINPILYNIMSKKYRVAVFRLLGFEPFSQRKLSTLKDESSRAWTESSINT
- assayProtocol: Ghrelin antagonist potency (IC50) with calcium FLIPR assay, ghrelin 10 nM
- Assay type: cell-based
- experimentalConditions: ghrelin antagonist potency, read-out: Activity IC50
valueKind: IC50 (µM)

[[record]]
compound = "CC(NC(=O)Nc1ccc(S(=O)(=O)Cc2ccc3c(c2)CNC3)c(C(N)=O)c1)c1ccccc1 (centres unmarked)"
subjectoftest = "GHSR-1a (HEK293/GHSR1a cell line) (Homo sapiens)"
experimentalresult = 0.418

[[record]]
compound = "CC(c1cccc(Cl)c1Cl)N(O)C(=O)Nc1ccc(S(=O)(=O)Cc2ccc3c(c2)CNC3)cc1.O=C(O)C(F)(F)F (centres unmarked)"
subjectoftest = "GHSR-1a (HEK293/GHSR1a cell line) (Homo sapiens)"
experimentalresult = 0.000336

[[record]]
compound = "CC(NC(=O)Nc1ccc(S(=O)(=O)Cc2ccc3c(c2)CNC3)c(F)c1)c1ccccc1.Cl (centres unmarked)"
subjectoftest = "GHSR-1a (HEK293/GHSR1a cell line) (Homo sapiens)"
experimentalresult = 0.0363

[[record]]
compound = "CC(c1ccccc1)N(C)C(=O)Nc1ccc(S(=O)(=O)Cc2ccc3c(c2)CN(C)C3)cc1O (centres unmarked)"
subjectoftest = "GHSR-1a (HEK293/GHSR1a cell line) (Homo sapiens)"
experimentalresult = 0.7

[[record]]
compound = "COc1cc(NC(=O)N(O)C(C)c2ccccc2)ccc1S(=O)(=O)Cc1ccc2c(c1)CNC2 (centres unmarked)"
subjectoftest = "GHSR-1a (HEK293/GHSR1a cell line) (Homo sapiens)"
experimentalresult = 0.0157

[[record]]
compound = "CC(NC(=O)Nc1ccc(S(=O)(=O)Cc2ccc3c(c2)CNC3)c(C2CC2)c1)c1ccccc1 (centres unmarked)"
subjectoftest = "GHSR-1a (HEK293/GHSR1a cell line) (Homo sapiens)"
experimentalresult = 0.00228

[[record]]
compound = "CC(NC(=O)Nc1ccc(S(=O)(=O)Cc2ccc3c(c2)CNC3)c(CO)c1)c1ccccc1 (centres unmarked)"
subjectoftest = "GHSR-1a (HEK293/GHSR1a cell line) (Homo sapiens)"
experimentalresult = 0.0262

[[record]]
compound = "COc1ccc(CNC(=O)Nc2ccc(S(=O)(=O)Cc3ccc4c(c3)CN(C)C4)cc2)cc1Cl"
subjectoftest = "GHSR-1a (HEK293/GHSR1a cell line) (Homo sapiens)"
experimentalresult = 0.0403

